From: the supplement of paper PMC9170038

- Tested on: MS2 coat protein
- test.name: apparent KD of MS2 coat protein; designed switch direction (-1 OFF switch, 1 ON switch): -1; higher = weaker reporter binding
- test.conditions: input ligand: FMN 200 uM
measurement.name: apparent KD of MS2 coat protein

biopolymer_sequence="AAUUAAUAUCAGGAUAUGACGUGCCUCGGCACGUCAGAAGGGAUGACAUGAGGAUCACCCAUGUGAUCAAUUAA [E6/1-A2] (Eterna round: R97, puzzle: Exclusion 6)" assayed_system="MS2 coat protein" test_value="153 nM"
biopolymer_sequence="ACAUGAGGAUCACCCAUGUACAGGGUUUAGCCUCAUUGUUUGAAGGAUAUACUCAGUUAGUUGUUGUAGAAGGUCACCUUUUAU [JR_ExcNG3_Sub003] (Eterna round: R96, puzzle: Exclusion NG 3)" assayed_system="MS2 coat protein" test_value="3450 nM"
biopolymer_sequence="CUCGUGCAGCUUUGCUGUACGAGUACAUGAGGAUCACCCAUGUAGGAUAUGGUACGCUUUGCGUGCUAGAAGGAUAUGUGUAGG [JL EXNG3 1.38] (Eterna round: R96, puzzle: Exclusion NG 3)" assayed_system="MS2 coat protein" test_value="44.1 nM"

---

- Tested on: K4 kissing-loop RNA reporter;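 also: bound reporter read as fluorescence of individual clusters on recovered sequencing chips by microscopy, with normalized cluster intensities fitted with a binding model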
- test.name: apparent KD of K4 kissing-loop reporter; higher = weaker reporter binding
- test.conditions: Eterna round: R107; input ligand: tryptophan 2.4 mM
Label yes when apparent KD of K4 kissing-loop reporter is at or above 200 nM; anything below gets no.

biopolymer_sequence="AGUACGGACGCGGCCGCCACUCAGGAGAAGAAGGUAGUGAUGUUGCUUAUGGAGAGAUCAAUCAAGAGGACCGGGUGCCGUGCAA [#07 K4 Tryptophan B Same State]" discrete_label=yes
biopolymer_sequence="AUUUAGACGAGUGAUGUUCGUGUUAUUACAGAGGAUAUGCGUAAUUGCAGAAGGCUGUAUUUAUAUAUGUUAUGUAAUUUUAAAA [JR_ExcFMNA_Sub007]" discrete_label=no
biopolymer_sequence="CGUGCCCAGCCGGAUACCAGUGACCCGCUGGGAACCGCGGGCCCAGAGUGAUGUUCGGGACACCCUUGGCAGCCGCCUGGGCGGG [#2 Same State - Theophylline B Attempt #15 (HarryS)]" discrete_label=yes
biopolymer_sequence="AAAUUGUUUAGAGGAUAUUCUUUAUUCGACAUAACCUUCUAUAAGGUGCAGUGAUGUUGCAAUAUAGGAGAAGGCUGAGCGAUAA [Exclusion FMN B Gf 14]" discrete_label=no
biopolymer_sequence="UAAGUCUUAUCGGCCGCCACUCAUUACACGAAGUGAUGUUUCGGGUUUUAGACAAAUAAUUUUUGGAGGACCGGGAUACGAGAAA [theeternabot_sameState_KL_Trp_B_49]" discrete_label=no
biopolymer_sequence="AUCUUGUUUGGAGGAUAUUCUUUAUUCGACAUAACCUUCUAUAAGGUGCAGUGAUGUUGCAAUAUAGGAGAAGGUCGAGUGAGAU [Exclusion FMN B GF 17]" discrete_label=no
biopolymer_sequence="CAUACGAAGCAGUGAUGUUGCUUAUGAGAAGGAGCGCACGAAAGUGCAGGUAGGUCGCUCAGCCAUGUGGACGAAAACGUCCACA [whbob_SS_Arginine_A_sa112]" discrete_label=yes
biopolymer_sequence="CCAUCGCUAUUCGAUACCAGUCAAGAGGUCUUUGGCCUCUUAAUGGAGUGAUGUUCCUUAGACCCUUGGCAGCGAAUAGUGAUGG [Theophylline B K4 13]" discrete_label=no
biopolymer_sequence="AGCCGAAAGGCGAGUGCUGUCGCUCCGGAAGGAGCGCAGGAAACUGCAGGUAGGUCGCCGGAGUGAUGUUUUGGUGCAGCACUCA [Omei KL Arginine A Exc B v7]" discrete_label=no
biopolymer_sequence="AUUUUGGUUUAGAGUGAUGUUCCUUGUAUUCGAGGACCGGUACGGCCGCCACUCGAAUAGAAAAGAAAAGAAAUGUGUGAUGUUU [BDazzled - #5 SS Tryptophan A]" discrete_label=yes
biopolymer_sequence="AGCAAUAUCACGGCCGCCACUGAUUAUUGUUUUUAUAGUUAUAAAUCUUGCCAGUGAUGUUGGUUCAGGACCGGGUGAGUUAAUA [JR_SSTryptoB_Sub002]" discrete_label=yes

---

- Tested on: MS2 coat protein
- test.name: apparent KD of MS2 coat protein; designed switch direction (-1 OFF switch, 1 ON switch): 1; higher = weaker reporter binding
- test.conditions: input ligand: microRNA oligo, concentration not stated
measurement.name: apparent KD of MS2 coat protein (nM)

biopolymer_sequence="UUGCAGUGCGGGUAGGAUAUGUAGGGUGGUACAUGAGGAUCACCCAUGUAUCCACCCUUCGACCGGCAGAAGGGCCUGUCACCGC [Lexeis] (Eterna round: R96, puzzle: Same State 2)" test_value=11.2
biopolymer_sequence="GUAGCAUACCGAGGAUAUUCAUUACAUGAGGAUCACCCAUGUUUAUUAUAGGCCAAAAGGCCUUGGGAGAAGGCGGAAUGCUAC [Xeonanis - 20 Mod12] (Eterna round: R96, puzzle: Same State NG 2)" test_value=8.47
biopolymer_sequence="GGUAGGUUACUACCAAACAUGAGGAUCACCCAUGUAGGUGGGAAGGAUAUGGUACCUUUUAGGUACCAGAAGGUCCAUACGAUC [NGss mod of JL's mod of Fisker 2] (Eterna round: R96, puzzle: Same State NG 3)" test_value=325
biopolymer_sequence="GCCAACGCAUGAGGAUAUGGCACCUUAUUGGUGCCAGAAGGCAUGUCUAUUGACAUGAGGAUCACCCAUGUAUUAUAGUUGGCA [Fiskers NG1ss - 15] (Eterna round: R96, puzzle: Same State NG 1)" test_value=369

---

- Test system: MS2 coat protein
- test.name: apparent KD of MS2 coat protein; higher = weaker reporter binding
- test.conditions: Eterna round: R107; input ligand: tryptophan 2.4 mM
measurement.name: apparent KD of MS2 coat protein (nM)

biopolymer_sequence="AUACAUGAGGAUCACCCAUGUCAUUCAGAAGGAGCGUCAUUUUAGACAGGUAGGUCGCUGUUAUUUUUAUUAUUCUUUAUGUUUU [JR_Nu_ExcArginiA_Sub025]" test_value=20.5
biopolymer_sequence="UACAUAUGCCGAAGGAGCGCGAGAUGCAAAGCAUCAUUCCUCACAUGAGGAUCACCCAUGUCGCAGGUAGGUCGCGGCAUAUGUU [ArgBX]" test_value=32.4
biopolymer_sequence="AAAAUAAAUAAAACGCGUAACAUGAAGGAUACCAGCCAGAAAACUGGCCCUUGGCAGCCUCUACAUGAGGAUCACCCAUGUCGCG [Mat - Same State Theophlline A - Mod of Eli - D15]" test_value=332
biopolymer_sequence="AAAGGCGGGCAGGAUACCAGCGCUAACAUGAGGAUCACCCAUGUACAAAUAAUAACAUGGUGCCCUUGGCAGCCUGGGCGUCUGC [Usedlati]" test_value=61.3
biopolymer_sequence="CGUGAUCCCUGUGAUACCAGAAGUACAUGAGGAUCACCCAUGUCAAACACAAAACCAAGCUUCCCUUGGCAGCAUAGUCGUUAAG [Esmaenbiza]" test_value=224
biopolymer_sequence="UGAUGGAACGGAAGGAGCGUGUAAGAACAAGAACAUGAGGAUCACCCAUGUAUUAAUUUAACACAGGUAGGUCGCCGAGUUAUUG [11.F]" test_value=15.9
biopolymer_sequence="UAUAACAUGAGGAUCACCCAUGUAAGUGAUACCAGAUAAAUAAUAGUCCCUUGGCAGCAUAUUGGGAAAAUGUAUAAUAUAUAUU [Same State - Theophylline A (Freestyle 1)]" test_value=49.4
biopolymer_sequence="UUAAUCAUAUUAGAAAACUAAUAUGCAGAAGGAGCGUGAUAAAACACAGGUAGGUCGCUGAAGGGAACAUGAGGAUCACCCAUGU [AstrosSSArgA#8]" test_value=26
biopolymer_sequence="CCCGACGAGCCUGAGAUUAAGUAAGCGGAUACCAGAGAUAGGUAGCUCCCUUGGCAGCCGUGGACAUGAGGAUCACCCAUGUCAC [theeternabot_exclusion_MS2_Theo_A_22]" test_value=10.9
biopolymer_sequence="AAACGUUGCUGCGAUACCAGACAUGAGGAUCACCCAUGUACCGAGGUACCCGAAAGGAAUGUCCCUUGGCAGCGCAGCAACGAAA [MAT - Exclusion Theophlline B - Mod of Eli - D24]" test_value=11.7
biopolymer_sequence="ACAGGAAACGGAAGGAGCGGAAUUGCAACAUGAGGAUCACCCAUGUUGAUCGUGAGUUGCUUCCAGGUAGGUCGCCGUUACCUAA [Erorve]" test_value=30.4
biopolymer_sequence="UAACAUGAGGAUCACCCAUGUUUAGAUGAACGAGGACCGGUACGGCCGCCACUCGAUAAGUGGAAAGAGCGAGGGAUUGUAUGCU [Same State Trp A GF4]" test_value=11.9
biopolymer_sequence="ACGUAAUGCAGAAGGAGCGUCUUUUUAAAACAUGAGGAUCACCCAUGUAAUAUUUAUGGGAGACAGGUAGGUCGCUGAAGUACGA [JR_SSArginiB_Sub006]" test_value=25.3
biopolymer_sequence="UUCUGGUCCCGUGAUACCAGAGACAUGAGGAUCACCCAUGUACAUGAGGAUCACCCAUGUUUCCCUUGGCAGCACUGCAGUGAGC [Exclusion Theophylline B GF 15]" test_value=147
biopolymer_sequence="ACACAUGAGGAUCACCCAUGUCCAAUAGAUACCAGUGAUACAGUGCACCCUUGGCAGCUGUUACUGAGUAAUGGUUCCCUCGGAA [Same State Theophylline A GF2]" test_value=37.5
biopolymer_sequence="UGUCAAUCGCCGGAUACCAGCCUAACUGAAGGAAAUCUAAACAUGAGGAUCACCCAUGUAGGCCCUUGGCAGCCGAGUAAGUACA [theeternabot_exclusion_MS2_Theo_B_15]" test_value=35.7
biopolymer_sequence="CUGUACAUCUCGGCCGCCACUGCAACAUGUAGAGAUGUAUAUGUACAUGAGGAUCACCCAUGUGGCAGGACCGGGAGGUGUGCAG [SSTryp B #27]" test_value=111
biopolymer_sequence="GCUGUACCAUGAAGGAGCGUCAUGGAUUGCGAAUACACAUGAGGAUCACCCAUGUUUUUAUGACAGGUAGGUCGCAUGGUACAGC [#01 Same State - Arginine B]" test_value=17.1
biopolymer_sequence="AGAGAGGCGCAUGAUACCAGCUUGGCCUAACAUGAGGAUCACCCAUGUCAAUGGGCCUUAAGCCCUUGGCAGCAUAGGGUGUCCU [Xeestixexe]" test_value=85.9
biopolymer_sequence="AAGCUGACAAGAAGGUGUUCCUAAGCUGAUACCAGCCUGGAAACAGGCCCUUGGCAGCAGCACAUGAGGAUCACCCAUGUAAUAA [(T)'-(M)'-(T1)-(T2)-(M1)-(M2)_Design2(Mismatches)]" test_value=115
biopolymer_sequence="GGAUAGGACGGAAGGAGCGACGUGAGGCUAAUGUCCAGUCUUCUACAUGAGGAUCACCCAUGUCAGGUAGGUCGCCGUCCUAUCG [#21 Exclusion - Arginine B]" test_value=41.8
biopolymer_sequence="ACAUGAGGAUCACCCAUGUACAUGAGGGAAGGAGCGGUACAUGUGCCAGGUAGGUCGCCCAACAGCAUCAGCCAUGUACAUCAGC [ppsmullin]" test_value=49.7
biopolymer_sequence="GAACAUAUGGAUACUAUUAUGAGCACAGAAGGAGCGAGCGGAAGCUCAGGUAGGUCGCUGGGUAACAUGAGGAUCACCCAUGUUG [XArg-A sub1]" test_value=20.8
